Recorded values, source the supplement of paper PMC7366291.

System: Danio rerio Tg(wt1b:EGFP) embryo, pronephros
ASSAY PROCEDURE: pronephric angle neck segment to proximal convoluted tubule (mean of left and right), fold change vs DMSO control; higher = larger pronephric angle
STATED CONDITIONS: 25 µM; exposure: 24-48 hpf
Structures can show the parent of a compound that is named as a salt.
pronephric angle neck segment vs 1: at or above is true (1), below is false (0).

C=CCN1CC[C@]23c4c5ccc(O)c4O[C@H]2C(=O)CC[C@@]3(O)[C@H]1C5 [Naloxone hydrochloride] ... true (1)
CCCC(C)(COC(N)=O)COC(=O)NC(C)C (stereo not drawn) ... false (0)
CCn1cc(C(=O)O)c(=O)c2cc3c(cc21)OCO3 ... false (0)
C[N+]1(C)[C@@H]2CC[C@H]1C[C@@H](OC(=O)C(CO)c1ccccc1)C2 (stereo partly drawn) [Methylatropine nitrate] ... true (1)
COc1ccc(C(CN(C)C)C2(O)CCCCC2)cc1 (stereo not drawn) ... false (0)

----------
Test system: Danio rerio Tg(wt1b:EGFP) embryo, pronephros
ASSAY PROCEDURE: pronephric angle neck segment to proximal convoluted tubule (mean of left and right), fold change vs DMSO control; higher = larger pronephric angle
STATED CONDITIONS: 25 µM; exposure: 24-48 hpf
Structures can show the parent of a compound that is named as a salt.
Respond with satisfied for pronephric angle neck segment values of 1 and above, not satisfied for values below.

COc1cc2c(c(OC)c1OC)-c1ccc(OC)c(=O)cc1[C@@H](NC(C)=O)CC2 [Colchicine] ... satisfied
CN(C)C(=O)Oc1ccc[n+](C)c1 [Pyridostigmine iodide] ... satisfied
O=c1[nH]oc2c1CCNC2 [THIP Hydrochloride] ... not satisfied
CC(Cc1ccc(O)cc1)NCC(O)c1cc(O)cc(O)c1 (stereo not drawn) [Fenoterol hydrobromide] ... not satisfied
C(#CCN1CCCC1)CN1CCCC1 [Tremorine dihydrochloride] ... satisfied
NCC(CC(=O)O)c1ccc(Cl)cc1 (racemic) [Baclofen (R,S)] ... not satisfied
Cc1cccc(C)c1NC1=NCCCS1 [Xylazine] ... not satisfied
CC(C)C[C@H](CN)CC(=O)O [Pregabalin] ... satisfied
C[N+]1([O-])[C@@H]2C[C@@H](OC(=O)[C@H](CO)c3ccccc3)C[C@H]1[C@@H]1O[C@@H]12 (stereo partly drawn) [Scopolamin-N-oxide hydrobromide] ... not satisfied
C[C@]12CCC(=O)C=C1C=C[C@@H]1[C@@H]2CC[C@@]2(C)[C@H]1CC[C@@]2(O)CCC(=O)O [Canrenoic acid potassium salt] ... not satisfied

----------
Tested on: Danio rerio Tg(wt1b:EGFP) embryo, pronephros
ASSAY PROCEDURE: glomerular width (mean of left and right), fold change vs DMSO control; higher = wider glomerulus
STATED CONDITIONS: 25 µM; exposure: 24-48 hpf
Structures can show the parent of a compound that is named as a salt.
Assign class by glomerular width: not lower than 1 means YES; lower than 1 means NO.

CC(C)(C)NCC(O)c1cc(Cl)c(N)c(Cl)c1 (stereo not drawn) [Clenbuterol hydrochloride] ... YES
C#CCN(C)[C@H](C)Cc1ccccc1 [Selegiline hydrochloride] ... NO
C[C@@H]1CC[C@H]2[C@@H](C)C(=O)O[C@@H]3O[C@@]4(C)CC[C@@H]1[C@]32OO4 [Artemisinin] ... NO
CN[C@@H]1C[C@@H](c2ccc(Cl)c(Cl)c2)c2ccccc21 [Indatraline hydrochloride] ... YES
O=C1CC[C@@]2(O)[C@H]3Cc4ccc(O)c5c4[C@@]2(CCN3CC2CC2)[C@H]1O5 [Naltrexone hydrochloride dihydrate] ... YES
COc1ccc(C(=O)N2CCCC2=O)cc1 [Aniracetam] ... YES
C[C@@H]1CN([C@H]2CC[C@](C#N)(c3ccc(F)cc3)CC2)CC[C@]1(C(=O)O)c1ccccc1 [Levocabastine hydrochloride] ... YES
